- testedTarget: T1, Human ACVR2A (human, UniProt P27037 20-135, limits assumed); further: test concentration or dose not given here
- T1 construct: also called activin receptor, type II A
- T1 sequence (P27037 20-135 limits assumed): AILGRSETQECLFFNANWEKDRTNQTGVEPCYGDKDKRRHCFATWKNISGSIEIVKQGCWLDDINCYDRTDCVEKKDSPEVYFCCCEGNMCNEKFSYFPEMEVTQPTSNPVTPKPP
- testProtocol: ELISA
quantity: optical density (OD)
Value expressed in OD; do not type the unit.

// known answers, use as guide
{"columns": ["binder", "endpointResult"],
 "data": [
  ["370_D11 (antibody, V domains shown) VH: EVQLLESGGGLVQPGGSLRLSCAASGFTFDSYSMNWVRQAPGKGLEWVSGINYNGGYTGYADSVKGRFTISRDNSKNTLYLQMNSLRAEDTAVYYCARSANWHDTALDYWGQGTLVTVSS VL: DIQMTQSPSSLSASVGDRVTITCRASQSIVSYLNWYQQKPGKAPKLLIYAATSRASGVPSRFSGSGSGTDFTLTISSLQPEDFATYYCQQSYDTPLTFGGGTKVEIK", 2.72],
  ["367_E11 (antibody, V domains shown) VH: EVQLLESGGGLVQPGGSLRLSCAASGFTFDSYGMNWVRQAPGKGLEWVSSINYNSGYKGYADSVKGRFTISRDNSKNTLYLQMNSLRAEDTAVYYCARSANWHDTHLDYWGQGTLVTVSS VL: DIQMTQSPSSLSASVGDRVTITCRASQSIVSYVNWYQQKPGKAPKLVIYAATSRHSGVPSRFSGSGSGTDFTLTISSLQPEDFATYYCQQSYDTPLTFGGGTKVEIK", 2.4],
  ["371_A12 (antibody, V domains shown) VH: EVQLLESGGGLVQPGGSLRLSCAASGFTFDSYSMNWVRQAPGKGLEWVAGINYNSGYTSYADSVKGRFTISRDNSKNTLYLQMNSLRAEDTAVYYCARSANWHDTALDYWGQGTLVTVSS VL: DIQMTQSPSSLSASVGDRVTITCRASQSILSYVNWYQQKPGKAPKLVIYAATSLASGVPSRFSGSGSGTDFTLTISSLQPEDFATYYCQQSYDTPLTFGGGTKVEIK", 3.17]
]}

Briefly, optical density measured for 368_B01 (antibody, V domains shown) VH: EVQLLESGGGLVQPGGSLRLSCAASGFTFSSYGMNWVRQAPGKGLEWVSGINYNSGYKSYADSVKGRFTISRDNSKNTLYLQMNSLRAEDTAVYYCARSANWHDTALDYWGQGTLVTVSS VL: DIQMTQSPSSLSASVGDRVTITCRASQSISSYLNWYQQKPGKAPKLLIYAATSRASGVPSRFSGSGSGTDFTLTISSLQPEDFATYYCQQSYETPLTFGGGTKVEIK : 2.61

Note to self: optical density recorded for 367_F03 (antibody, V domains shown) VH: EVQLLESGGGLVQPGGSLRLSCAASGFTFSSYSMNWVRQAPGKGLEWVAGINYNSGYKSYADSVKGRFTISRDNSKNTLYLQMNSLRAEDTAVYYCARSANWHDTALDYWGQGTLVTVSS VL: DIQMTQSPSSLSASVGDRVTITCRASQSILSYVNWYQQKPGKAPKLVIYAATSLASGVPSRFSGSGSGTDFTLTISSLQPEDFATYYCQQSDDTPLTFGGGTKVEIK was 2.1
